Reference source: patent US20150329642A1

targetDesc: T1, rhHGF R/Fc Chimera (R&D Systems; Cat.358MT/CF) (human, UniProt P08581 25-932)
T1 construct: Bought reagent; Fc part of the bought chimera not given; not described
T1 sequence (P08581 25-932, change not shown): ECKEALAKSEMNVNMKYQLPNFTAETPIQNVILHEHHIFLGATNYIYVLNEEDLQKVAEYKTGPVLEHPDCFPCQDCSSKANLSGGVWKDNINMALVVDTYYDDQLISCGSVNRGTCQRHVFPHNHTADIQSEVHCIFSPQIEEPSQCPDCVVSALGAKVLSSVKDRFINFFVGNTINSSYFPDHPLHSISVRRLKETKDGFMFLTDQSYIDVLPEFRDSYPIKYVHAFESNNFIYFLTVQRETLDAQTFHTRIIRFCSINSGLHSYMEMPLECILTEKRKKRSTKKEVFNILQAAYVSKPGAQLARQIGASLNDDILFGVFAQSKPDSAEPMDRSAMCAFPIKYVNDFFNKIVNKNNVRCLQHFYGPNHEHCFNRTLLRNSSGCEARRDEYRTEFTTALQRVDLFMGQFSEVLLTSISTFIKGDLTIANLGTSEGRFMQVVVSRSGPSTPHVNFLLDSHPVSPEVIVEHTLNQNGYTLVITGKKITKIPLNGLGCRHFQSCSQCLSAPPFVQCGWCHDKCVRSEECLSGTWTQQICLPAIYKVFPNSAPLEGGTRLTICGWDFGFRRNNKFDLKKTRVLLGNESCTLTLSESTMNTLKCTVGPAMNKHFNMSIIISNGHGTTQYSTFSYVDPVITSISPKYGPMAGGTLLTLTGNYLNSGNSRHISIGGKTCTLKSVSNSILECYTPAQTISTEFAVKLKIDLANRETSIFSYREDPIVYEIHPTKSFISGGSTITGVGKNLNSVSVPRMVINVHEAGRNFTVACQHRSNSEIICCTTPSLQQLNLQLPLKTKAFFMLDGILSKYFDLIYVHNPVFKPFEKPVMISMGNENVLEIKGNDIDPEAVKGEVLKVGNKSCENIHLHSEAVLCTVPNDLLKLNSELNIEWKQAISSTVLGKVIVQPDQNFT
assayExplanation: ELISA on coated rhHGF R/Fc Chimera
valueType: EC50 (µg/mL)
Provide the reading as a plain figure in µg/mL.

Below, 3 binders whose answers are already recorded.
>>> readoutvalue("IgG1-1016-069-ΔC220 (antibody, V domains shown, human kappa; also called IgG1 ΔC220 mutant of 069) VH: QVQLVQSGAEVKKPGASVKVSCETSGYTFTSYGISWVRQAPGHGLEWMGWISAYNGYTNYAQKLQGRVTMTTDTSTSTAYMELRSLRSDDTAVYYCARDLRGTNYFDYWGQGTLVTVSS VL: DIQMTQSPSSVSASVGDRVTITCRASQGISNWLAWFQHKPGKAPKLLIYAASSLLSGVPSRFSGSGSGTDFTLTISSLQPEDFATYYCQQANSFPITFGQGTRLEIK")
0.0189
>>> readoutvalue("IgG2-1016-069 (antibody, V domains shown, IgG2 format of clone 069; also called IgG2 backbone variant of 069) VH: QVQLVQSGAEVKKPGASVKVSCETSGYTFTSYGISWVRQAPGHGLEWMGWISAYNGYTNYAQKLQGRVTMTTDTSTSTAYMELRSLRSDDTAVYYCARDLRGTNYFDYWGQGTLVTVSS VL: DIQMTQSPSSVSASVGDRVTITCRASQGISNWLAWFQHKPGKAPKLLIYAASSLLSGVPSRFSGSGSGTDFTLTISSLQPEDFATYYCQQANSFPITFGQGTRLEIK")
0.0296
>>> readoutvalue("IgG1-1016-069-Hinge IgG2 (antibody, V domains shown, human kappa; also called IgG1 Hinge-IgG2 variant of 069) VH: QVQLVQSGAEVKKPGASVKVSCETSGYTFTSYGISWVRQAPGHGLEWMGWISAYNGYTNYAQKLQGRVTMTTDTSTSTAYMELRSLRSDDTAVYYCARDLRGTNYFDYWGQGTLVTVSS VL: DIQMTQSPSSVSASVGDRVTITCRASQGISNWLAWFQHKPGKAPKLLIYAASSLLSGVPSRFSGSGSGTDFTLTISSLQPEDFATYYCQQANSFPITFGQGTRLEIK")
0.023

Could you now consider this next binder?
QUERY: Fill in EC50 for record IgG1-1016-069-C220S (antibody, V domains shown, human kappa; also called IgG1 C220S mutant of 069) VH: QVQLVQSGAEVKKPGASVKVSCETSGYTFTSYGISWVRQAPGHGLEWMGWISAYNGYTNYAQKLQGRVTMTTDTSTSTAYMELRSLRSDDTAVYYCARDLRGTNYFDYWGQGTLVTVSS VL: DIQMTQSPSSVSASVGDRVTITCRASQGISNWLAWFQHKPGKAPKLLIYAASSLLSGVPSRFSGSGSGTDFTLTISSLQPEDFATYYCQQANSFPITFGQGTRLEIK
RESULT: 0.0156
